Provide the reported pIC50 of each item.
# TARGET UNDER TEST: Prostaglandin G/H synthase 1 (Homo sapiens, UniProt P23219)
# Sequence (P23219 whole entry): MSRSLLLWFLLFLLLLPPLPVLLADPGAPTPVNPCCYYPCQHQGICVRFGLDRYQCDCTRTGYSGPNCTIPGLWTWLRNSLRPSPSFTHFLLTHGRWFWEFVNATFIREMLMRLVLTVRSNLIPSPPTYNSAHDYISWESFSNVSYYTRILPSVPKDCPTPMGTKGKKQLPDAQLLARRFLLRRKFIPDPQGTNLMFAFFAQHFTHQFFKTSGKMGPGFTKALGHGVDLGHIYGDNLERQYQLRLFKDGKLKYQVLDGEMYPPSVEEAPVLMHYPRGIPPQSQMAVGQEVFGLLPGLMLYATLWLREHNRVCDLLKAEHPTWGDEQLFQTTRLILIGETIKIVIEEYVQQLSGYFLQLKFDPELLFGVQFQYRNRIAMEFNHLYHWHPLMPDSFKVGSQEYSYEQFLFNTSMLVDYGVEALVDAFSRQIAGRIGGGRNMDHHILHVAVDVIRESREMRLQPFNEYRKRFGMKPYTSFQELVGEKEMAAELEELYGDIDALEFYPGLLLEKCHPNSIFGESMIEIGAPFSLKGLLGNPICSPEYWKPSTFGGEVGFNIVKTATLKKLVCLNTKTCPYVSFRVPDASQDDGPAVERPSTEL
# ASSAY COMMENT: IC50 against Prostaglandin G/H synthase 1 from human platelet rich plasma
# Type: cell-free
# pIC50 = -log10(concentration in molar units)

Given the molecule CN1C(NC(=N)N)=NC(=O)/C1=C/c1cc(C(C)(C)C)c(O)c(C(C)(C)C)c1 , what is its reported pIC50?
5.82

Given the molecule CC(C)(C)c1cc(/C=C2\OC(N=C(N)N)=NC2=O)cc(C(C)(C)C)c1O , what is its reported pIC50?
5.36

Given the molecule CC(C)(C)c1cc(/C=C2\SC(=O)NC2=O)cc(C(C)(C)C)c1O , what is its reported pIC50?
5.03

Given the molecule CC(C)(C)c1cc(/C=C2\OC(=O)NC2=O)cc(C(C)(C)C)c1O , what is its reported pIC50?
5.92

Given the molecule CC(C)(C)c1cc(/C=C2\NC(=S)NC2=O)cc(C(C)(C)C)c1O , what is its reported pIC50?
6.00

Given the molecule C/C(=C1/SC(N=C(N)N)=NC1=O)c1cc(C(C)(C)C)c(O)c(C(C)(C)C)c1 , what is its reported pIC50?
6.23
